# Target System: Amyloid-beta precursor protein (Homo sapiens) (UniProt P05067)
# Sequence (P05067 whole entry): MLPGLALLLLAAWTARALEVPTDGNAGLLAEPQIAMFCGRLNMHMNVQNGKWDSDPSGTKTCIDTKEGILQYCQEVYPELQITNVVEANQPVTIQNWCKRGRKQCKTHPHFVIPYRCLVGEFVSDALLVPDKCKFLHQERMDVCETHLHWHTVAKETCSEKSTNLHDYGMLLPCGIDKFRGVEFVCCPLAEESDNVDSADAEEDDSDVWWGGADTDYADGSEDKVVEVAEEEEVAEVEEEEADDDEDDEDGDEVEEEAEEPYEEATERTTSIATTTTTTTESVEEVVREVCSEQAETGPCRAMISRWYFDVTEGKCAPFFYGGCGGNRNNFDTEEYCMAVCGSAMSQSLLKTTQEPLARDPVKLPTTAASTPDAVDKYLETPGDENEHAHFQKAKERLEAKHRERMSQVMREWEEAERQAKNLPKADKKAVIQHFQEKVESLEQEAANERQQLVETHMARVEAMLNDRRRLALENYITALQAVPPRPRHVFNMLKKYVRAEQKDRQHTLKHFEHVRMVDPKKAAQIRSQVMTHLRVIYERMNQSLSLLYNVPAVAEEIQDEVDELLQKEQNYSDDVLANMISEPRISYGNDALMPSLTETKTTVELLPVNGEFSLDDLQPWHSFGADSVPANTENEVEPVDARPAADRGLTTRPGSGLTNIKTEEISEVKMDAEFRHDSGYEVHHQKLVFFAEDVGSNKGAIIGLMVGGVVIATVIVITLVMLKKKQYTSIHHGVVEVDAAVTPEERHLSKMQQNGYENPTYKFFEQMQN
# Protocol Details: Binding affinity to amyloid beta aggregates in Alzheimer patient hippocampus by fluorescence microscopy
# Assay type: tissue-based
Calls of active or inactive are those of the source. No cut-off for these calls is given here.
Measure Name: Activity

Sample answers from the record:
In [3]: df
Out[3]:
                                smiles_data  measure_name  endpoint_result
0  C[N+]1=C(/C=C/c2ccc(O)cc2)C(C)(C)c2ccccc21.[I-]      Activity         inactive
1  C[N+]1=C(/C=C/c2ccc(N3CCCC3)cc2)C(C)(C)c2ccccc21.[I-]      Activity         inactive
2  CN1CCN(c2ccc(/C=C/C3=[N+](C)c4ccccc4C3(C)C)cc2)CC1.[I-]      Activity         inactive
3  COc1ccc(/C=C/C2=[N+](C)c3ccccc3C2(C)C)cc1.[I-]      Activity         inactive
4  CCN(CC)c1ccc(/C=C/C2=[N+](C)c3ccccc3C2(C)C)cc1.[I-]      Activity         inactive

Please examine the following record next.
query: Reported Activity for `CCCC[N+]1=C(/C=C/c2ccc(N(CC)CC)cc2)C(C)(C)c2ccccc21.[I-]` : what is it?
result: inactive
